- assayProtocol: CLint (intrinsic clearance) assay, liver microsomal incubation
- Format: in vitro ADME, human
- measurementConditions: liver microsomes, pH 7.4; human hepatic microsomes, 0.5 mg/mL protein, class symbols
parameterMeasured: microsomal CLint at 0.8 μM

In: microsomal CLint at 0.8 μM for "Cn1cc(-c2ccc(-c3cnc(N)c(Cl)c3N3CCC4(CC3)NC(=O)NC4=O)cc2)cn1" ?
Out: < 10 µL/min/mg

In: microsomal CLint at 0.8 μM for "Nc1ncc(-c2ccc(-c3cnn(CCO)c3)cc2)c(N2CCC3(CC2)CNC(=O)O3)c1Cl" ?
Out: 10 to 50 µL/min/mg

In: microsomal CLint at 0.8 μM for "Cn1cc(-c2ccc(-c3cnc(N)c(Cl)c3N3CCC4(CC3)NCCNC4=O)cc2)cn1" ?
Out: 10 to 50 µL/min/mg

In: microsomal CLint at 0.8 μM for "Cn1cc(-c2ccc(-c3cnc(N)c(Cl)c3N3CCC4(CC3)C(=O)Nc3ccccc34)cc2)cn1" ?
Out: 10 to 50 µL/min/mg

In: microsomal CLint at 0.8 μM for "CN1C(=O)CCc2cc(-c3cnc(N)c(Cl)c3N3CCC4(CCNC4=O)CC3)ccc21" ?
Out: 10 to 50 µL/min/mg

In: microsomal CLint at 0.8 μM for "Nc1ncc(-c2ccc3c(N)n[nH]c3c2)c(N2CCC3(CC2)CC(=O)NC3=O)c1Cl" ?
Out: 10 to 50 µL/min/mg

In: microsomal CLint at 0.8 μM for "Nc1ncc(-c2ccc3c(c2)CC(=O)N3)c(N2CCC3(CCNC3=O)CC2)c1Cl" ?
Out: 10 to 50 µL/min/mg

In: microsomal CLint at 0.8 μM for "CN1c2ccc(-c3cnc(N)c(Cl)c3N3CC[C@@H](C#N)[C@H](O)C3)cc2CS1(=O)=O" ?
Out: 10 to 50 µL/min/mg

In: microsomal CLint at 0.8 μM for "Cn1cc(-c2ccc(-c3cnc(N)c(Cl)c3N3CCC4(CC3)CNC(=O)O4)cc2)cn1" ?
Out: 10 to 50 µL/min/mg

In: microsomal CLint at 0.8 μM for "CN1c2ccc(-c3cnc(N)c(C(F)(F)F)c3N3CCC4(CC3)CNC(=O)O4)cc2CS1(=O)=O" ?
Out: 10 to 50 µL/min/mg

In: microsomal CLint at 0.8 μM for "CCn1cc(-c2ccc(-c3cnc(N)c(Cl)c3N3CCC4(CCNC4=O)CC3)cc2)cn1" ?
Out: ≥ 150 µL/min/mg

In: microsomal CLint at 0.8 μM for "Cn1cc(-c2ccc(-c3cnc(N)c(C(F)(F)F)c3N3CCC4(CCNC4=O)CC3)cc2)cn1" ?
Out: 10 to 50 µL/min/mg

In: microsomal CLint at 0.8 μM for "CCN1Cc2cc(-c3cnc(N)c(Cl)c3N3CCC4(CCNC4=O)CC3)ccc2S1(=O)=O" ?
Out: < 10 µL/min/mg

In: microsomal CLint at 0.8 μM for "Nc1ncc(-c2ccc3c(N)n[nH]c3c2)c(N2CCC3(CCNC3=O)CC2)c1Cl" ?
Out: < 10 µL/min/mg

In: microsomal CLint at 0.8 μM for "Nc1ncc(-c2ccc3c(c2)CCS3(=O)=O)c(N2CCC3(CCNC3=O)CC2)c1Cl" ?
Out: 10 to 50 µL/min/mg

In: microsomal CLint at 0.8 μM for CN1c2ccc(-c3cnc(N)c(Cl)c3N3CC[C@H](C#N)[C@@H](O)C3)cc2CS1(=O)=O (racemic) [Compound 57] ?
Out: 10 to 50 µL/min/mg

In: microsomal CLint at 0.8 μM for "CN1c2ccc(-c3cnc(N)c(Cl)c3N3CCC4(CC3)CNC(=O)O4)cc2CS1(=O)=O" ?
Out: < 10 µL/min/mg

In: microsomal CLint at 0.8 μM for "Cn1ncc2cc(-c3cnc(N)c(Cl)c3N3CCC4(CCNC4=O)CC3)ccc21" ?
Out: 50 to 100 µL/min/mg

In: microsomal CLint at 0.8 μM for "N#CC1CCN(c2c(-c3ccc(N4CCOCC4)cc3)cnc(N)c2Cl)CC1" ?
Out: 100 to 150 µL/min/mg

In: microsomal CLint at 0.8 μM for "Nc1ncc(-c2ccc3c(c2)CCC(=O)N3)c(N2CCC3(CCNC3=O)CC2)c1Cl" ?
Out: 10 to 50 µL/min/mg

In: microsomal CLint at 0.8 μM for "CCn1ncc2ccc(-c3cnc(N)c(Cl)c3N3CCC4(CCNC4=O)CC3)cc21" ?
Out: 10 to 50 µL/min/mg

In: microsomal CLint at 0.8 μM for "CC(C)n1ncc2ccc(-c3cnc(N)c(Cl)c3N3CCC4(CCNC4=O)CC3)cc21" ?
Out: 100 to 150 µL/min/mg

In: microsomal CLint at 0.8 μM for "CN1c2ccc(-c3cnc(N)c(Cl)c3N3CCC4(CCNC4=O)CC3)cc2CS1(=O)=O" ?
Out: 100 to 150 µL/min/mg

In: microsomal CLint at 0.8 μM for "Nc1ncc(-c2ccc3c(c2)CCC(=O)N3)c(N2CCC3(CC2)CC(=O)NC3=O)c1Cl" ?
Out: < 10 µL/min/mg

In: microsomal CLint at 0.8 μM for "Cn1ncc2cc(-c3cnc(N)c(Cl)c3N3CCC4(CC3)CNC(=O)O4)ccc21" ?
Out: 10 to 50 µL/min/mg

In: microsomal CLint at 0.8 μM for "CN1CCN(c2ccc(-c3cnc(N)c(Cl)c3N3CCC(C#N)CC3)cc2)CC1" ?
Out: 10 to 50 µL/min/mg

In: microsomal CLint at 0.8 μM for "Cn1ncc2ccc(-c3cnc(N)c(Cl)c3N3CCC4(CC3)CNC(=O)O4)cc21" ?
Out: 10 to 50 µL/min/mg

In: microsomal CLint at 0.8 μM for "Nc1ncc(-c2ccc3c(N)n[nH]c3c2)c(N2CCC3(CC2)NC(=O)NC3=O)c1Cl" ?
Out: < 10 µL/min/mg

In: microsomal CLint at 0.8 μM for "Nc1ncc(-c2ccc3oc(=O)[nH]c3c2)c(N2CCC3(CCNC3=O)CC2)c1Cl" ?
Out: 10 to 50 µL/min/mg

In: microsomal CLint at 0.8 μM for "Cn1ncc2cc(-c3cnc(N)c(C(F)(F)F)c3N3CCC4(CCNC4=O)CC3)ccc21" ?
Out: 50 to 100 µL/min/mg

In: microsomal CLint at 0.8 μM for "Cn1ncc2ccc(-c3cnc(N)c(Cl)c3N3CCC4(CCNC4=O)CC3)cc21" ?
Out: 10 to 50 µL/min/mg

In: microsomal CLint at 0.8 μM for "Nc1ncc(-c2ccc(-c3cnn(CCO)c3)cc2)c(N2CCC3(CC2)NC(=O)NC3=O)c1Cl" ?
Out: 10 to 50 µL/min/mg
